Listed next: entries and their corresponding diameter of the inhibition zone (DIZ).
Test system: Yamadazyma tenuis
assay_summary: Antifungal activity against Candida tenuis assessed as growth inhibition at 0.1% after 48 to 72 hr by agar disk diffusion method
Format: functional

>  <structure_notation>
O=C1C(Cl)=C(N2CCC(C(O)(c3ccccc3)c3ccccc3)CC2)C(=O)c2ccccc21

>  <diameter of the inhibition zone (DIZ)>
0 mm

$$$$
>  <structure_notation>
O=C1C(SCc2ccc(Cl)cc2)=C(N2CCCC2)C(=O)c2ccccc21

>  <diameter of the inhibition zone (DIZ)>
0 mm

$$$$
>  <structure_notation>
O=C1C(Cl)=C(Sc2c(Cl)c(Cl)c(Cl)c(Cl)c2Cl)C(=O)c2ccccc21

>  <diameter of the inhibition zone (DIZ)>
0 mm

$$$$
>  <structure_notation>
O=C1C(SCc2ccc(Cl)cc2)=C(N2CCC(C(O)(c3ccccc3)c3ccccc3)CC2)C(=O)c2ccccc21

>  <diameter of the inhibition zone (DIZ)>
0 mm

$$$$
>  <structure_notation>
O=C1C2=C(SCCCCSC3=C(SCCCCS2)C(=O)c2ccccc2C3=O)C(=O)c2ccccc21

>  <diameter of the inhibition zone (DIZ)>
9.7 mm

$$$$
>  <structure_notation>
CCOC1=C(Sc2nccn2C)C(=O)c2ccccc2C1=O

>  <diameter of the inhibition zone (DIZ)>
0 mm

$$$$
>  <structure_notation>
O=C1C(SCCOc2ccccc2)=C(SCCOc2ccccc2)C(=O)c2ccccc21

>  <diameter of the inhibition zone (DIZ)>
0 mm

$$$$
>  <structure_notation>
COC(=O)CCSC1=C(SCCC(=O)OC)C(=O)c2ccccc2C1=O

>  <diameter of the inhibition zone (DIZ)>
10 mm

$$$$
>  <structure_notation>
O=C1C(SCc2ccc(Cl)cc2)=C(N2CCSCC2)C(=O)c2ccccc21

>  <diameter of the inhibition zone (DIZ)>
0 mm

$$$$
>  <structure_notation>
O=C1C(SCc2ccc(Cl)cc2)=C(N2CCN(c3ccccc3F)CC2)C(=O)c2ccccc21

>  <diameter of the inhibition zone (DIZ)>
0 mm

$$$$

* * *

Tested on: Yamadazyma tenuis
assay_summary: Antifungal activity against Candida tenuis assessed as growth inhibition after 24 to 72 hr by serial dilution method
Type: functional
Activity calls are given as the source filed them. The calls are words filed in the database; no cut-off is given here.

>  <structure_notation>
O=C1C(SCc2ccc(Cl)cc2)=C(N2CCOCC2)C(=O)c2ccccc21

>  <MIC>
inactive

$$$$
>  <structure_notation>
COC(=O)CCSC1=C(Cl)C(=O)c2ccccc2C1=O

>  <MIC>
1.9 µg/mL

$$$$
>  <structure_notation>
CCOC1=C(Sc2nccn2C)C(=O)c2ccccc2C1=O

>  <MIC>
250 µg/mL

$$$$
>  <structure_notation>
O=C1C2=C(SCCCCSC3=C(SCCCCS2)C(=O)c2ccccc2C3=O)C(=O)c2ccccc21

>  <MIC>
3.9 µg/mL

$$$$
>  <structure_notation>
O=C1C(Cl)=C(N2CCC(C(O)(c3ccccc3)c3ccccc3)CC2)C(=O)c2ccccc21

>  <MIC>
inactive

$$$$
>  <structure_notation>
O=C1C(SCc2ccc(Cl)cc2)=C(N2CCCC2)C(=O)c2ccccc21

>  <MIC>
7.8 µg/mL

$$$$
>  <structure_notation>
O=C1C(Cl)=C(Sc2c(Cl)c(Cl)c(Cl)c(Cl)c2Cl)C(=O)c2ccccc21

>  <MIC>
125 µg/mL

$$$$
>  <structure_notation>
O=C1C(SCc2ccc(Cl)cc2)=C(N2CCSCC2)C(=O)c2ccccc21

>  <MIC>
7.8 µg/mL

$$$$
>  <structure_notation>
CCOC1=C(Sc2ccc(O)cc2)C(=O)c2ccccc2C1=O

>  <MIC>
31.2 µg/mL

$$$$
>  <structure_notation>
O=C1C(Sc2ccc(O)cc2)=C(Sc2ccc(O)cc2)C(=O)c2ccccc21

>  <MIC>
7.8 µg/mL

$$$$

Cited source: ChEMBL document CHEMBL3045787
